test system: corn; assay: Test B pre-/postemergence herbicide test; type: in vivo, Zea mays; conditions: Postemergence, 500 g ai/ha; visual rating after 13 to 15 days, scale 0 (no effect) to 100 (complete control)
Give Plant response rating, Corn for every item shown.
Respond with the number and no other words.

Ask | Look up Plant response rating, Corn: CCn1nc(C(C)(C)C)cc1C(=O)Nc1ccc(C)c(C(=O)OC(C)C)c1 [Compound 100]
Reply | 0

Ask | Another compound: CCn1nc(C(C)(C)C)cc1C(=O)Nc1cc(C(=O)OC(C)C)c(OC)cc1F [Compound 77]
Reply | 10

Ask | Also check CCn1nc(C(C)(C)C)cc1C(=O)Nc1cccc2c1CNC2=O [Compound 52]
Reply | 40

Ask | Ok, now CCn1nc(C(C)(C)C)cc1C(=O)Nc1cccc(C(=O)OC(C)C)c1C [Compound 92]
Reply | 10

Ask | Thanks! And C=CCOC(=O)c1cccc(NC(=O)c2cc(C(C)(C)C)nn2CC)c1C [Compound 94] ?
Reply | 20

Ask | Follow-up entry: CCCn1nc(C(C)(C)C)cc1C(=O)Nc1cccc(C(=O)NCC)c1 [Compound 57]
Reply | 20

* * *

Exercise: state measured Crabgrass, Large plant response rating for each of the molecules provided.
system: large crabgrass; assay: Test B pre-/postemergence herbicide test; type: in vivo, Digitaria sanguinalis; conditions: postemergence, 500 g ai/ha; visual rating, scale 0 (no effect) to 100 (complete control)
Field format: numeric only.

Ask | Value wanted: Crabgrass, Large plant response rating (large crabgrass) of entry `CCc1nc(C(C)(C)C)sc1C(=O)Nc1cccc(C(=O)NCC2CC2)n1`
Reply | 0

Ask | Now the same for `CCn1nc(C(C)(C)C)cc1C(=O)Nc1cccc(S(C)(=O)=O)c1`
Reply | 30

Ask | What do you get for `C=CCn1nc(C(C)(C)C)cc1C(=O)Nc1cccc(C(C)=O)c1` ?
Reply | 10

Ask | What do we get for `C#CCNC(=O)c1cccc(NC(=O)c2sc(C(C)(C)C)nc2C)c1` ?
Reply | 10

Ask | Record: `CC(=O)c1cc(NC(=O)c2cc(C(C)(C)C)nn2C)ccc1F`
Reply | 0

* * *

Please respond with reported Plant response rating, Barnyardgrass for every item in the list.
system: barnyardgrass; assay: Test B pre-/postemergence herbicide test; assay type: in vivo, Echinochloa crus-galli; conditions: 500 g ai/ha; visual rating, 0 = no effect, 100 = complete control; preemergence

Ask | Name the recorded Plant response rating, Barnyardgrass for CCC1=NN(C(C)(C)C)CC1C(=O)Nc1cc(C(=O)N(C)CC)ccc1F (racemic) .
Reply | 100

Ask | Follow-up item: `CCn1nc(C(C)(C)C)cc1C(=O)Nc1cccc(C(=O)N2CC=CC2)c1`
Reply | 90

Ask | Now this one: `CCn1nc(C(C)(C)C)cc1C(=O)Nc1cc(C(=O)OC(C)C)c(F)cc1F`
Reply | 20

Ask | Consider next the molecule `CCc1cn(C(C)(C)C)nc1C(=O)Nc1cccc(C(=O)N(C)C)n1` in the same way.
Reply | 0

* * *

tested on: wheat; assay: Test B postemergence herbicide test; type: in vivo, Triticum aestivum; details: Postemergence, 500 g ai/ha; visual rating after 13 to 15 days, scale 0 (no effect) to 100 (complete control)
quantity-name: Plant response rating, Wheat
No unit in the answer, only the number.

Ask | Endpoint output: Plant response rating, Wheat of `CCn1nc(C(C)(C)C)cc1C(=O)Nc1ccc(F)c(C(=O)NCCF)c1` . Value?
Reply | 0

Ask | Same again, this time with `CCn1nc(C(C)(C)C)cc1C(=O)Nc1cc(C(=O)OC)c(OC)cc1F`
Reply | 20

Ask | And what about the compound `CCn1nc(C(C)(C)C)cc1C(=O)Nc1cc(C(=O)N(C)C)ccc1F` ?
Reply | 40

Ask | Now give it for `CCn1nc(C(C)(C)C)cc1C(=O)Nc1cccc(C(=O)OC)c1C` too.
Reply | 0

Ask | Lookup `CCn1nc(C(C)(C)C)cc1C(=O)Nc1cccc2c1CNC2=O`
Reply | 0

Ask | Same for `CCn1nc(C(C)(C)C)cc1C(=O)Nc1ccc(C)c(C(=O)OC(C)C)c1`
Reply | 10

* * *

test system: large crabgrass; experiment: Test A pre-/postemergence herbicide test; assay type: in vivo, Digitaria sanguinalis; conditions: Postemergence, 500 g ai/ha; 0 to 100 scale, 0 no effect, 100 complete control
quantity-name: Crabgrass, Large plant response rating
I only need the number, thanks.

Ask | Quick check: Crabgrass, Large plant response rating on large crabgrass, item `CCn1nc(C(C)(C)C)nc1C(=O)Nc1cc(C(=O)N(C)C)ccc1F` ?
Reply | 70

Ask | Then what about the compound `CCn1nc(C(C)(C)C)cc1C(=O)Nc1cccc(OC(C)C)c1` ?
Reply | 25

Ask | Same read-out for `C=CCOC(=O)c1cccc(NC(=O)c2cc(C(C)(C)C)nn2CC)c1` ?
Reply | 20

Ask | Consider next the compound `CC(=O)c1cc(NC(=O)c2cc(C(C)(C)C)nn2C)ccc1F` in the same way.
Reply | 10

Ask | Now try `CCn1nc(C(C)(C)C)cc1C(=O)Nc1cccc(C(C)=NO)c1` .
Reply | 65

* * *

For each record, write down the corresponding Cocklebur plant response rating.
system: cocklebur; experiment: Test B pre-/postemergence herbicide test; format: in vivo, Xanthium strumarium; settings: postemergence, 500 g ai/ha; scale 0 to 100, 0 is no effect, 100 is complete control
The response must contain the number and no unit.

Ask | Entry under review: CCNC(=O)c1cccc(NC(=O)c2cc(C(C)(C)C)n[nH]2)c1 [Compound 351] . Reported Cocklebur plant response rating?
Reply | 0

Ask | Same thing, different compound: CCc1nn(C(C)(C)CC)nc1C(=O)Nc1cccc(C(=O)N2CC=CC2)c1 [Compound 369]
Reply | 70

Ask | Follow-up item: CCNC(=O)c1cncc(NC(=O)c2cc(C(C)(C)C)nn2CC)n1 [Compound 288]
Reply | 0

Ask | Then what about the compound CCc1nn(C(C)(C)C)nc1C(=O)Nc1cc(C(=O)N(C)CC)ccc1F [Compound 388] ?
Reply | 20

Ask | Next record, please: CCn1nc(C(C)(C)C)cc1C(=O)Nc1cccc(OC(F)(F)F)c1 [Compound 272]
Reply | 90

Ask | Param item: CCC1=NN(C(C)(C)C)CC1C(=O)Nc1cc(C(=O)N(C)CC)ccc1F (racemic) [Compound 342]
Reply | 20

Ask | What about this compound? CCn1nc(C(C)(C)C)cc1C(=O)Nc1cccc(OC(F)(F)C(F)F)c1 [Compound 333]
Reply | 80

Ask | And for Cc1nn(C(C)(C)C)cc1C(=O)Nc1cc(C(=O)N(C)C)ccc1F [Compound 344] ?
Reply | 10

Ask | Same lookup for CCc1nn(C2CCCC2)nc1C(=O)Nc1cccc(C(=O)N(C)C)c1 [Compound 355] , please.
Reply | 10

* * *

tested on: giant foxtail; assay: Test B pre-/postemergence herbicide test; format: in vivo, Setaria faberi; details: 125 g ai/ha; 0 is no effect, 100 is complete control; preemergence
quantity-name: Plant response rating (0 to 100 scale), Foxtail, Giant

Ask | Could you share what Plant response rating (0 to 100 scale), Foxtail, Giant was measured for CCNC(=S)c1ccc(F)c(NC(=O)c2cc(C(C)(C)C)nn2CC)c1 [Compound 349] , tested on giant foxtail?
Reply | 70

Ask | Another compound to check: CCc1nn(C(C)(C)C)nc1C(=O)Nc1cccc(C(=O)NC2CC2)c1 [Compound 417]
Reply | 70

Ask | Also, CCNC(=O)c1ccc(F)c(N(C(C)=O)C(=O)c2cc(C(C)(C)C)nn2CC)c1 [Compound 399] please.
Reply | 100

Ask | Another compound to look at: CCc1nn(C2CCCC2)nc1C(=O)Nc1cccc(C(=O)N(C)C)c1 [Compound 355]
Reply | 10

Ask | Next entry: C=CCN(CC=C)C(=O)c1cccc(NC(=O)c2nn(C(C)C)nc2CC)c1 [Compound 390]
Reply | 0

Ask | Moving on to C#CCOc1cccc(NC(=O)c2cc(C(C)(C)C)nn2CC)c1 [Compound 411]
Reply | 10

Ask | What about this compound? C=CCN(CC=C)C(=O)c1ccc(F)c(NC(=O)c2cc(C(C)(C)C)nn2CC)c1 [Compound 431]
Reply | 50

Ask | Also CCC1=NN(C(C)(C)C)CC1C(=O)Nc1cc(C(=O)N2CCCC2)ccc1F (racemic) [Compound 341] ?
Reply | 50

* * *

Record form. Attribute: Plant response rating, Crabgrass, Large. Fill in for each entry.
test system: large crabgrass; test: Test B pre-/postemergence herbicide test; type: in vivo, Digitaria sanguinalis; settings: preemergence, 125 g ai/ha; 0 to 100 scale, 0 is no effect, 100 is complete control
// keep it numeric: no unit symbol after the value

Ask | Form field: Plant response rating, Crabgrass, Large recorded for `CCn1nc(C(C)(C)C)cc1C(=O)Nc1cc(C(=O)OC)c(OC)cc1F` with large crabgrass (enter value)
Reply | 10

Ask | Okay, and `CCn1nc(C(C)(C)C)cc1C(=O)Nc1cccc(C(=O)OC)c1` ?
Reply | 0

Ask | Also need `CCCn1nc(C(C)(C)C)cc1C(=O)Nc1cccc(C(=O)NCC)c1` , thanks.
Reply | 40

Ask | Param item: `CCn1nc(C(C)(C)C)cc1C(=O)Nc1cc(C#N)ccc1F`
Reply | 0

Ask | For `CC(=NO)c1cccc(NC(=O)c2cc(C(C)(C)C)nn2CC(F)(F)F)c1` then?
Reply | 20
